# subject of test: GLP-1 Receptor (Homo sapiens, UniProt P43220)
# Construct: host or cells: HEK293/GLP1R/CRE-LUC (HEK293/CRE-Luc stably expressing GLP-1R)
# Sequence (P43220 24-463): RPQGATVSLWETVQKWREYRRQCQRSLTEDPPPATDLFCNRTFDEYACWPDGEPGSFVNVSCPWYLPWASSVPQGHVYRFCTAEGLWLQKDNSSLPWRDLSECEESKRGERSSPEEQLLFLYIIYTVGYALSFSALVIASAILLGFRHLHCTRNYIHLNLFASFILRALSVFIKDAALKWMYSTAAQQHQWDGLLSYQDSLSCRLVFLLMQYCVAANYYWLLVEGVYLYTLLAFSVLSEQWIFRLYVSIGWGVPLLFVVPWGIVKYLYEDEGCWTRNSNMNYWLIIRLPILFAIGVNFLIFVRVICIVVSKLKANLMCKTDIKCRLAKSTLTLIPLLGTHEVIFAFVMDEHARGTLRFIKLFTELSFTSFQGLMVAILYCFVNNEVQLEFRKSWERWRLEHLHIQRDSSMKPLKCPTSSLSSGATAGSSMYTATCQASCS
# assay: GLP-1R agonist cAMP stimulation assay (HEK293/GLP1R/CRE-LUC cells, HTRF cAMP dynamic 2 kit)
# Assay type: cell-based
# protocol conditions: HEK293/CRE-Luc cell line (HDB), 30 min incubation, read-out: GLP1R cAMP Stimulation DR: EC50 (nM) [Species: Human, Assay Cell Line: HDB]
quantity name: EC50 (nM)

[I] Cc1cc(-c2nn3c(c2-n2ccn(-c4ccc5c(cnn5C)c4)c2=O)CN(C(=O)c2cc4cc(C5CCOCC5)ccc4n2[C@@]2(c4noc(=O)[nH]4)C[C@@H]2C)CC3)cc(C)c1F [Compound 105a]
[II] CCP(=O)(CC)c1ccc(-n2ccn(-c3c(-c4cc(C)c(F)c(C)c4)nn4c3C(C)N(C(=O)c3cc5cc(C6CCOCC6)ccc5n3[C@@]3(c5noc(=O)[nH]5)C[C@@H]3C)CC4)c2=O)cc1NC (single isomer, unassigned) [Compound 112a]
Looking at I and II , which one comes out lower in EC50 terms? Reply with the label of the item you choose.
I
(I: 1.86 nM, II: 42 nM)

---

# subject of test: GLP-1 Receptor (Homo sapiens)
# Construct: host or cells: HEK293/GLP1R/CRE-LUC (HEK293/CRE-Luc stably expressing GLP-1R)
# assay: GLP-1R agonist cAMP stimulation assay (HEK293/GLP1R/CRE-LUC cells, HTRF cAMP dynamic 2 kit)
# Format: cell-based
# protocol conditions: HEK293/CRE-Luc cell line (HDB), 30 min incubation, read-out: GLP1R cAMP Stimulation DR: EC50 (nM) [Species: Human, Assay Cell Line: HDB]
quantity name: EC50 (nM)

The examples below pair each entry with its known result.
- compound: "Cc1cc(-c2nn3c(c2-n2ccn(-c4ccc5c(cnn5C)c4)c2=O)CN(C(=O)c2cc4cc(C5CCOCC5)ccc4n2[C@@]2(C(=O)O)C[C@@H]2C)CC3)cc(C)c1F [Compound 106a]"
  display unit: "nM"
  EC50: 113
- compound: "Cc1cc(-c2nn3c(c2-n2ccn(-c4ccc5c(cnn5C)c4)c2=O)CN(C(=O)c2cc4cc(C5CCOCC5)ccc4n2C2(c4noc(=O)[nH]4)CCC2)CC3)cc(C)c1F"
  display unit: "nM"
  EC50: 3300

[1] CCP(=O)(CC)c1ccc(-n2ccn(-c3c(-c4cc(C)c(F)c(C)c4)nn4c3C(C)N(C(=O)c3cc5cc(C6CCC(F)(F)CC6)ccc5n3[C@@]3(c5noc(=O)[nH]5)C[C@@H]3C)CC4)c2=O)cc1NC (single isomer, unassigned) [Compound 116a]
[2] Cc1cc(-c2nn3c(c2-n2ccn(-c4ccc5c(cnn5C)c4F)c2=O)C(C)N(C(=O)c2cc4cc([C@H]5CCOC(C)(C)C5)ccc4n2[C@@]2(c4noc(=O)[nH]4)C[C@@H]2C)CC3)cc(C)c1F (single isomer, unassigned) [Compound 117a]
Of 1 and 2 , whose reported EC50 is the larger number? When you have decided, please share the label of that item.
1
